- protocol_description: Pharmacokinetics of compounds in rats (oral)
- Format: in vivo, SD rats
- cond: male, SD, rat, plasma, po, 10 mg/kg, male SD rats, 10 mg/kg, read-out: Cmax
hey, just use MET if measured Cmax is less than 20 ng/mL, otherwise NOT MET

Below are worked cases with known answers.
Oc1cc(-c2ncc3c(N4CC5CCC(C4)N5)nc(OCC45CCCN4C(c4ccc(C(F)(F)F)cc4)CC5)nc3c2F)c2ccccc2c1 (centres unmarked) :: NOT MET
Oc1cc(-c2ncc3c(N4CC5CCC(C4)N5)nc(OCC45CCCN4C(c4ccc6occc6c4)CC5)nc3c2F)c2ccccc2c1 (centres unmarked) :: MET
Oc1cc(-c2ncc3c(N4CC5CCC(C4)N5)nc(OCC45CCCN4C(c4ccc(OC(F)(F)F)cc4)CC5)nc3c2F)c2ccccc2c1 (centres unmarked) :: NOT MET
Oc1cc(-c2ncc3c(N4CC5CCC(C4)N5)nc(OCC45CCCN4C(c4ccc6c(c4)OC(F)(F)O6)CC5)nc3c2F)c2ccccc2c1 (centres unmarked) :: NOT MET

Would you kindly verify if Cmax of Oc1cc(-c2ncc3c(N4CC5CCC(C4)C5(F)F)nc(OC[C@@]45CCCN4C[C@H](F)C5)nc3c2F)c2c(F)c(F)ccc2c1 is strictly less than 20 ng/mL?
NOT MET

---

- Test system: KRas G12D-mediated ERK phosphorylation
- protocol_description: Inhibition of KRas G12D-mediated ERK phosphorylation in AGS cells
- Assay type: cell-based
- cond: Homo sapiens, AGS, read-out: AGS-pERK IC50
metric_name: IC50 (nM)
Answer in nM, number only, no unit symbol.

C#Cc1c(F)ccc2cc(O)cc(-c3ncc4c(N5CC6CCC(C5)N6)nc(OCC56CCCN5C(c5ccc7c(c5)C5CCC7O5)CC6)nc4c3F)c12 (centres unmarked) :: 1.8
C#Cc1c(F)ccc2cc(O)cc(-c3ncc4c(N5CC6CCC(C5)N6)nc(OCC56CCCN5C(c5ccc(F)cc5)CC6)nc4c3F)c12 (centres unmarked) :: 5.2
Cc1ccc([C@H]2CCC3(COc4nc(N5CC6CCC(C5)N6)c5cnc(-c6cc(O)cc7ccc(F)c(F)c67)c(F)c5n4)CCCN23)cc1 (mixture of isomers) :: 1.8
Oc1cc(-c2ncc3c(N4CC5CCC(C4)N5)nc(OCC45CCCN4[C@@H](c4ccc(C(F)(F)F)c(F)c4)CC5)nc3c2F)c2c(F)c(F)ccc2c1 (mixture of isomers) :: 1.5
CC1(C)OCc2ccc(C3CCC4(COc5nc(N6CC7CCC(C6)N7)c6cnc(-c7cc(O)cc8ccc(F)c(F)c78)c(F)c6n5)CCCN34)cc21 (centres unmarked) :: 15

// Input: COc1ccc([C@H]2CCC3(COc4nc(N5CC6CCC(C5)N6)c5cnc(-c6cc(O)cc7ccc(F)c(F)c67)c(F)c5n4)CCCN23)cc1OC(F)(F)F (some centres unmarked) . Output its IC50 only.
1.6

// Input: COc1cc([C@H]2CCC3(COc4nc(N5CC6CCC(C5)N6)c5cnc(-c6cc(O)cc7ccc(F)c(F)c67)c(F)c5n4)CCCN23)ccc1C(F)(F)F (mixture of isomers) . Output its IC50 only.
1.9

// Input: C#Cc1c(F)ccc2cc(O)cc(-c3ncc4c(N5CC6CCC(C5)N6)nc(OCC56CCCN5C(c5ccc7c(c5)COC7)CC6)nc4c3F)c12 (centres unmarked) . Output its IC50 only.
3.8

// Input: [2H]C1([2H])OCc2cc(C3CCC4(COc5nc(N6C[C@H]7CC[C@@H](C6)N7)c6cnc(-c7cc(O)cc8ccc(F)c(F)c78)c(F)c6n5)CCCN34)ccc21 (some centres unmarked) . Output its IC50 only.
7.6

// Input: CC1(C)OCc2cc(C3CCC4(COc5nc(N6C[C@H]7CC[C@@H](C6)N7)c6cnc(-c7cc(O)cc8ccc(F)c(F)c78)c(F)c6n5)CCCN34)ccc21 (some centres unmarked) . Output its IC50 only.
11

// Input: Oc1cc(-c2ncc3c(N4CC5CCC(C4)N5)nc(OCC45CCCN4[C@@H](c4ccc(C(F)(F)F)cc4)CC5)nc3c2F)c2c(F)c(F)ccc2c1 (single isomer, unassigned) . Output its IC50 only.
1.8
